The measurements presented in this section are drawn from paper PMC314469.

- System: Myo5 SH3 domain
- ASSAY_PROTOCOL: SPOT analysis of cellulose-bound peptides (WISE), Myo5 SH3 domain (Dataset S4)
- Type: binding, Saccharomyces cerevisiae
- TEST_PARAMETERS: SPOT analysis of cellulose-bound 14-mer yeast proteome peptides, Myo5 SH3 domain; normalized value; mean where the peptide was synthesized more than once
QUANTITY_MEASURED: The normalized value in BLU units (BLU)
Give bare numbers, in BLU.

In the examples that follow, each entry is paired with its recorded The normalized value in BLU units.
>  <ENTRY_SEQUENCE>
KFFKHLYPAIPILD

>  <ENDPOINT_VALUE>
217.0

$$$$
>  <ENTRY_SEQUENCE>
SLISKRNPCYPYGI

>  <ENDPOINT_VALUE>
483.2

$$$$
>  <ENTRY_SEQUENCE>
AARILANPDHPFSR

>  <ENDPOINT_VALUE>
165.5

$$$$
>  <ENTRY_SEQUENCE>
DFVTLHVPATPETE

>  <ENDPOINT_VALUE>
190.5

$$$$
>  <ENTRY_SEQUENCE>
EFDMLLLPFIPSID

>  <ENDPOINT_VALUE>
249.2

$$$$

GET /values?readout=The normalized value in BLU units&item= KPPVYRLPPLPRLK
2305.8

---

- Test system: Myo5 SH3 domain
- ASSAY_PROTOCOL: SPOT analysis of cellulose-bound peptides (WISE), Myo5 SH3 domain (Dataset S4)
- Assay type: binding, Saccharomyces cerevisiae
- TEST_PARAMETERS: SPOT analysis of membrane-synthesized peptides probed with Myo5 SH3 domain; normalized value
QUANTITY_MEASURED: The normalized value in BLU units (SPOT analysis, Myo5 SH3) (BLU)
Answers are plain numbers, in BLU.

Dear reader, for each entry below, please note its The normalized value in BLU units (SPOT analysis, Myo5 SH3).
1. ISADKGFPLIPSGY
2. LSFDRPPPLTPEKN
3. GEMVKLTPKNPFYK
4. KRKAKAPPPPPPPP
5. WLDEKRIPSTPIDY
6. NNSTRPIPAIPMDL

[113.3, 174.4, 408.3, 4025.3, 163.3, 247.2]

Quick request: The normalized value in BLU units (SPOT analysis, Myo5 SH3) for each listed item, please.
1. FGSNKNNPVPPELT
2. STDHRGTPANPGRV
3. WLGNKYDPENPFND
4. LRISKPDPECPSKL
5. PVRCRVLPATPRQI
6. SVSEKTNPSSPSVS
7. PQTMRQAPKRPDAD

171.5
257.1
88.8
246.3
1474.0
126.7
3257.1

Please go through the list and note The normalized value in BLU units (SPOT analysis, Myo5 SH3) for each sequence.
1. EFDLKNIPMMPAGE
2. PFIRRYTPLKPITK

[106.1, 649.2]

---

- TARGET_OR_SYSTEM: Ysc84 SH3 domain (GST-fused) (Saccharomyces cerevisiae)
- Construct: Experiments were carried out on sensor chips with GST-fused SH3 domains and GST as a control; made in house
- Sequence (P32793 409-468 limits assumed): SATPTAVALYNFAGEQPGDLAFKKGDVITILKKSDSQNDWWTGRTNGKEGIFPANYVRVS
- ASSAY_PROTOCOL: Surface plasmon resonance (BIAcoreX) dissociation constants of peptides, Ysc84 SH3 domain
- Type: binding
- TEST_PARAMETERS: Figure 4A; SPR BIAcoreX, GST-SH3 coupled to CM5 chip, GST control; peptides in 10 mM HEPES, 150 mM NaCl, 3.4 mM EDTA, 0.005% P20, pH 7.4, 25°C; steady-state model; read-out: dissociation constant, SH3 DOMAINS YSC84
- Method: Figure 4 Measurement of Dissociation Constants and Correlation with SPOT Intensities (A) Dissociation constants were measured with a BIAcoreX instrument as described in the Materials and Methods. The experiments with the Abp1 SH3 domain were carried out in triplicate. […] Surface plasmon resonance measurements were carried out with a BIAcoreX instrument (BIAcore, Uppsala, Sweden). […] Dissociation constant values were evaluated by applying the steady-state model using BIAcore evalution 3.1 software.
No end group written: not given here.
QUANTITY_MEASURED: Kd (µM)
Numbers only, in µM.

Worked cases, Kd given:
>  <ENTRY_SEQUENCE>
STPPTLPPRRIEDP [YMR192 STPPTLPPRRIEDP]

>  <QUANTITY_MEASURED>
Kd

>  <UNITS_LABEL>
µM

>  <ENDPOINT_VALUE>
9.1

$$$$
>  <ENTRY_SEQUENCE>
RAVPILPPRNNVEP [YBR108W RAVPILPPRNNVEP]

>  <QUANTITY_MEASURED>
Kd

>  <UNITS_LABEL>
µM

>  <ENDPOINT_VALUE>
13

$$$$
>  <ENTRY_SEQUENCE>
RPLPQLPNRNNRPV [LAS17 RPLPQLPNRNNRPV]

>  <QUANTITY_MEASURED>
Kd

>  <UNITS_LABEL>
µM

>  <ENDPOINT_VALUE>
9.6

$$$$

Let us move to another entry and its Kd.
Return Kd measured with Ysc84 SH3 domain (GST-fused) (Saccharomyces cerevisiae) given this sequence: NAPERAVPILPPRN [YBR108W NAPERAVPILPPRN]
13
